Molecular target: enzyme ACAT-1 (Homo sapiens, UniProt P35610)
Sequence (P35610 1-550): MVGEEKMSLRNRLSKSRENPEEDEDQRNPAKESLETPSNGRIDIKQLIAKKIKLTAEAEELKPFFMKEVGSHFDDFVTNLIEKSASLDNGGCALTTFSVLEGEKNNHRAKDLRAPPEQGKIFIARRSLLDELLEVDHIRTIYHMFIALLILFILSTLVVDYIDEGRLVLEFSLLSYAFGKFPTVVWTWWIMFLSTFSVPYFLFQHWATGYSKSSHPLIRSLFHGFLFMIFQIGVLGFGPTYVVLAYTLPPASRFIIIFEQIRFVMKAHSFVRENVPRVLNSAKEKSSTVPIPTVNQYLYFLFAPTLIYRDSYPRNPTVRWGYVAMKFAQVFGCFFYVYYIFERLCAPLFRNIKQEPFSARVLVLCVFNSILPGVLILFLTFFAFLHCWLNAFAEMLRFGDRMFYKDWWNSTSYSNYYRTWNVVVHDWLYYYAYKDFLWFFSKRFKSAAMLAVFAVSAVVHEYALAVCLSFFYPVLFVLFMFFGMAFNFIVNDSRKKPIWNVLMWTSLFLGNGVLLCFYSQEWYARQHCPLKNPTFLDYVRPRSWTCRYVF
Test: ACAT-1 (SOAT-1) inhibition test in HepG2 cells with NBD-cholesterol fluorescence
Conditions: NBD-cholesterol 1 μg/ml, incubation 6 h at 37° C., fluorescence excitation 490 nm / emission 540 nm
pIC50: −log10 of the molar value.
Reported Metric: pIC50

CC(C)c1cccc(C(C)C)c1NC(=O)CN1C(=O)N(c2ccccc2)C2(CCCC2)C1=O | 8.49
CCc1cccc(CC)c1NC(=O)CN1C(=O)N(c2ccc(Cl)cc2)C2(CCCC2)C1=O | 8.57
Cc1ccc(N2C(=O)N(CC(=O)Nc3c(C)cccc3Cl)C(=O)C23CCCCC3)cc1 | 8.29
CC(C)c1cccc(C(C)C)c1NC(=O)CN1C(=O)N(CCc2ccccc2)C2(CCCCC2)C1=O | 8.25

(1) Cc1ccc(N2C(=O)N(CC(=O)Nc3c(C)cc(C)cc3Br)C(=O)C23CCCCC3)cc1
(2) CCC1(CC)C(=O)N(CC(=O)Nc2c(C(C)C)cccc2C(C)C)C(=O)N1c1ccc(C)cc1
(3) CCCCN1C(=O)N(CC(=O)Nc2c(C(C)C)cccc2C(C)C)C(=O)C12CCCCC2
QUERY: Sort the compounds on pIC50; start with the lowest figure. Output spec: a listing of the labels in the requested order.
RESULT: 1, 3, 2

----------
Reported Metric: melting point (°C)

Example entries begin here.
Cc1ccc(N2C(=O)N(CC(=O)Nc3c(C(C)C)cccc3C(C)C)C(=O)C23CCCC3)cc1 | 278
CCc1ccc(N2C(=O)N(CC(=O)Nc3c(CC)cccc3CC)C(=O)C23CCCC3)cc1 | 191
CC(C)c1cccc(C(C)C)c1NC(=O)CN1C(=O)N(c2ccc(CO)cc2)C2(CCCCC2)C1=O | 230
CC(C)c1cccc(C(C)C)c1NC(=O)CN1C(=O)N(C2CCCCCC2)C2(CCCCC2)C1=O | 248
CC(C)c1cccc(C(C)C)c1NC(=O)CN1C(=O)N(C2CCCCC2)C2(CCCCC2)C1=O | 236

(1) CCCCCCCN1C(=O)N(CC(=O)Nc2c(C(C)C)cccc2C(C)C)C(=O)C12CCCCC2
(2) Cc1ccc(N2C(=O)N(CC(=O)Nc3c(C)cccc3C(C)(C)C)C(=O)C23CCCCC3)cc1
QUERY: Smaller melting point value? Options are 1 and 2 Lab note: record the label of whichever item you select.
RESULT: 2

----------
Reported Metric: melting point (°C)

CCCCCN1C(=O)N(CC(=O)Nc2c(C(C)C)cccc2C(C)C)C(=O)C12CCCCC2 [compound (I.29)] | 200
Cc1ccc(N2C(=O)N(CC(=O)Nc3c(C)cc(C)cc3C)C(=O)C23CCCCC3)cc1 [compound (I.45)] | 266
CCc1cccc(CC)c1NC(=O)CN1C(=O)N(Cc2ccccc2)C2(CCCCC2)C1=O [compound (I.63)] | 179
CCC1(CC)C(=O)N(CC(=O)Nc2c(C(C)C)cccc2C(C)C)C(=O)N1c1ccc(C)cc1 [compound (I.39)] | 174
CCc1cccc(CC)c1NC(=O)CN1C(=O)N(c2ccc(Cl)cc2)C2(CCCC2)C1=O [compound (I.61)] | 218
CC(C)c1cccc(C(C)C)c1NC(=O)CN1C(=O)N(c2ccc(Cl)cc2)C2(CCCCC2)C1=O [compound (I.6)] | 237
CCc1ccc(N2C(=O)N(CC(=O)Nc3c(C(C)C)cccc3C(C)C)C(=O)C23CCCC3)cc1 [compound (I.37)] | 246

----------
Reported Metric: melting point (°C)

CC(C)c1cccc(C(C)C)c1NC(=O)CN1C(=O)N(c2ccccc2F)C2(CCCCC2)C1=O | 231
CC(C)c1cccc(C(C)C)c1NC(=O)CN1C(=O)N(c2ccccc2)C2(CCCCC2)C1=O | 245
COc1ccccc1N1C(=O)N(CC(=O)Nc2c(C(C)C)cccc2C(C)C)C(=O)C12CCCCC2 | 229
CC(C)c1cccc(C(C)C)c1NC(=O)CN1C(=O)N(c2cccc(Cl)c2)C2(CCCCC2)C1=O | 240

(1) CCCN1C(=O)N(CC(=O)Nc2c(C(C)C)cccc2C(C)C)C(=O)C12CCCCC2
(2) CCCCCCCN1C(=O)N(CC(=O)Nc2c(CC)cccc2CC)C(=O)C12CCCCC2
QUERY: Hi, I'm comparing 1 with 2 and wondering which one has the bigger number for melting point. Any idea? Use the label to indicate which entry you chose.
RESULT: 1

----------
Target: enzyme ACAT-1 (Homo sapiens)
Sequence (P35610 1-550): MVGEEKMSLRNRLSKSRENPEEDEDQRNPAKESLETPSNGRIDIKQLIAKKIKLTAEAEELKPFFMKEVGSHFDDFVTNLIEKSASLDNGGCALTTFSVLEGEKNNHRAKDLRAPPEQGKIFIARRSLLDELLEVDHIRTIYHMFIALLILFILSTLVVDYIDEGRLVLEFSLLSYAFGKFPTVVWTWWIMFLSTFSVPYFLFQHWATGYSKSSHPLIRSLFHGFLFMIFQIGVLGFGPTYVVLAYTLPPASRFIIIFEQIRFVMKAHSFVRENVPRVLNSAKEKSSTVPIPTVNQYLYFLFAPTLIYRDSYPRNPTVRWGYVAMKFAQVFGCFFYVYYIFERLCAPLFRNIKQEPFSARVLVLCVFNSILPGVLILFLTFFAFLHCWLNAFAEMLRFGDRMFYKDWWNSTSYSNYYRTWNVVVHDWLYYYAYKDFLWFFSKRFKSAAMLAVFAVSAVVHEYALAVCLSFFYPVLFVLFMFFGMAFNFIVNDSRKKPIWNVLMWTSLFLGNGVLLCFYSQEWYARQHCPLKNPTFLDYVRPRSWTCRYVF
Experiment: ACAT-1 (SOAT-1) inhibition test in HepG2 cells with NBD-cholesterol fluorescence
Conditions: NBD-cholesterol 1 μg/ml, incubation 6 h at 37° C., fluorescence excitation 490 nm / emission 540 nm
pIC50: −log10 of the molar value.
Reported Metric: pIC50

(A) CC(C)c1cccc(C(C)C)c1NC(=O)CN1C(=O)N(C2CCCCC2)C2(CCCCC2)C1=O
(B) Cc1ccc(N2C(=O)N(CC(=O)Nc3c(C(C)C)cccc3C(C)C)C(=O)C23CCCCC3)cc1
(C) CC(C)c1cccc(C(C)C)c1NC(=O)CN1C(=O)N(c2ccc(F)cc2)C2(CCCCC2)C1=O
QUERY: Hey, can you sort those molecules up there by pIC50, smallest first? In your reply, arrange the labels in the requested order.
RESULT: A, C, B

----------
Reported Metric: melting point (°C)

Before answering, review these 2 worked examples.
CC(C)c1cccc(C(C)C)c1NC(=O)CN1C(=O)N(c2cccc(F)c2)C2(CCCCC2)C1=O | 234
CC(C)c1cccc(C(C)C)c1NC(=O)CN1C(=O)N(CC2CC2)C2(CCCCC2)C1=O | 240

(1) CC(C)c1cccc(C(C)C)c1NC(=O)CN1C(=O)N(c2ccc(F)cc2)C2(CCCCC2)C1=O
(2) CCc1cccc(CC)c1NC(=O)CN1C(=O)N(CCc2ccccc2)C2(CCCCC2)C1=O
QUERY: Compare 1 and 2 by numeric melting point and name the larger one. // output: label of the selected item
RESULT: 1
(1: 258 °C, 2: 178 °C)

----------
Reported Metric: melting point (°C)

CC(C)c1cccc(C(C)C)c1NC(=O)CN1C(=O)N(c2ccccc2Cl)C2(CCCCC2)C1=O | 252
Cc1ccc(N2C(=O)N(CC(=O)Nc3c(C)cc(C)cc3Cl)C(=O)C23CCCCC3)cc1 | 248
CCCCCCCCN1C(=O)N(CC(=O)Nc2c(C(C)C)cccc2C(C)C)C(=O)C12CCCCC2 | 202
CCCCN1C(=O)N(CC(=O)Nc2c(C(C)C)cccc2C(C)C)C(=O)C12CCCCC2 | 241
CCc1cccc(CC)c1NC(=O)CN1C(=O)N(c2ccc(OCc3ccccc3)cc2)C2(CCCCC2)C1=O | 184
CCCCCCCCCN1C(=O)N(CC(=O)Nc2c(C(C)C)cccc2C(C)C)C(=O)C12CCCCC2 | 183
